System: UACC-62 melanoma
test: NCI-60 one-dose screen, 48 h (100 = growth as untreated, 0 = no growth, -100 = all killed)
cond: 10 µM
This is part of a sample that, as a whole, favours compounds with a hit. Of some 83,000 tested, about 20% had one in any assay.
outcome-measure: growth (%)
Your answer should be a plain number; it is taken to be in %.

State the recorded growth for this entry: COC(=O)CCn1c(-c2ccc(-n3cc(-c4ccc(O[C@H]5O[C@@H]6OC7(C)CC[C@H]8[C@H](C)CC[C@@H]([C@H]5C)[C@@]68OO7)cc4)nn3)cc2)nc2ccccc21
10.8

Please give the result for COCCOCCOCCOc1ccc(-n2cc(CCCN(CCNc3ccnc4cc(Cl)ccc34)C(=O)CCC(=O)O[C@@H]3O[C@@H]4OC5(C)CC[C@H]6[C@H](C)CC[C@@H]([C@H]3C)[C@@]46OO5)nn2)cc1 too.
37

Please give the result for COCCOCCOCCOc1ccc(-n2cc(-c3ccc(O[C@H]4O[C@@H]5OC6(C)CC[C@H]7[C@H](C)CC[C@@H]([C@H]4C)[C@@]57OO6)cc3)nn2)cc1 too.
37.3

Please give the result for C=CC[Se]C(=O)c1cncc(C(=O)[Se]CC=C)c1 too.
-62.3

Please give the result for CCC[Se]C(=O)c1ccc(C(=O)[Se]CCC)s1 too.
-64.9

Please give the result for COc1ccc(/C=C/C(=O)c2nc3ccccc3n2Cc2ccc(Br)cc2)cc1 too.
65

Please give the result for CC12OOC(C)(OO1)C2CCC(=O)NCCNc1ccnc2cc(Cl)ccc12 (stereo not drawn) too.
91.8

Please give the result for CCOP(=O)(CC(F)(F)C(F)(F)F)OCC too.
44.7

* * *

Tested on: HL-60(TB) leukemia
test: NCI-60 one-dose screen, 48 h (100 = growth as untreated, 0 = no growth, -100 = all killed)
cond: 10 µM unless noted
The panel holds about 83,000 compounds, 20% with a hit somewhere; the sample as a whole holds those more often.
Label Criterion met when growth < 80%; otherwise Criterion not met.

Please let me know if CN(C)CCCNC(=O)c1cc(NC(=O)c2cc(NC(=O)c3ccc(/C=C/c4ccccc4)cc3)cn2C)cn1C shows growth below 80%.
Criterion met

Please give the result for C(=C\c1cc(/C=C/c2ccccc2)c2ccccc2n1)/c1ccccc1 too.
Criterion met

Please give the result for Cc1cc(C)nc(NS(=O)(=O)c2ccc(N/C(N)=N/c3nccc(-c4cccs4)n3)cc2)n1 too.
Criterion met

Please give the result for C=CC[Se]C(=O)c1cncc(C(=O)[Se]CC=C)c1 too.
Criterion met

Please give the result for COc1cc2oc(-c3cccc(C(=O)Nc4ccc(Cl)cc4)c3)cc(=O)c2c(OCCNC(=O)[C@H](CCC(=O)OC(C)(C)C)NC(=O)OC(C)(C)C)c1OC too.
Criterion not met

Please give the result for O=c1[nH]c2ccccc2cc1CSc1ccc(Nc2nccc(-c3ccc4c(c3)OCO4)n2)cc1 too.
Criterion not met

Please give the result for COc1ccc(C(=O)COc2ccc(NC(=O)Nc3ccccc3)cc2)cc1 too.
Criterion not met

Please give the result for COc1ccc(-c2nc3cc(C)ccc3n2CC(=O)N=Nc2c(O)[nH]c3ccc(Br)cc23)cc1 too.
Criterion met

Please give the result for S=C(NCCc1ccccc1)Nc1ccc(OCc2nc3ccccc3[nH]2)cc1 too.
Criterion not met

Please give the result for Nc1cc2ccccc2c(=O)n1NC(=O)c1ccc(Br)cc1 too.
Criterion not met

Please give the result for COc1cccc(-c2nc(Nc3ccc(S(N)(=O)=O)cc3)c3ccccc3n2)c1 too.
Criterion met

Please give the result for O=C1N/C(=N\c2nccs2)S/C1=C\c1cccs1 too.
Criterion met

Please give the result for O=c1nc(-c2ccccc2)cc(-c2cc3ccccc3nc2Cl)[nH]1 too.
Criterion met

Please give the result for COc1ccc(C(SCCNCc2cc(N(C)C)ccn2)(c2ccccc2)c2ccccc2)cc1 too.
Criterion met

Please give the result for C#CCOc1ccc(/C=N/Nc2nc(-c3cc4cc(OC)ccc4oc3=O)cs2)cc1OC too.
Criterion met

Please give the result for COC(=O)C[C@](O)(CCCC(C)C)C(=O)O[C@H]1C(OC)=C[C@@]23CCCN2CCc2cc4c(cc2[C@@H]13)OCO4 too.
Criterion met

Please give the result for Cn1cc(-c2cc(N)n3nc(-c4c[nH]c5ccccc45)cc3n2)c2cc(Br)cnc21 too.
Criterion met

Please give the result for CC(C)Sc1nc(NC2CC2)c(C#N)c(-c2ccccc2)n1 too.
Criterion not met

Please give the result for N#C/C(=C/c1ccc(Cl)cc1)c1nnc(NC(=O)c2ccc(-n3c(=O)[nH]c4ccccc4c3=O)cc2)s1 too.
Criterion not met

Please give the result for C=CCn1c(SCC(=O)Nc2ccc(C(=O)/C=C/c3ccccc3)cc2)nnc1-c1c[nH]c2ccccc12 too.
Criterion met

* * *

Tested on: SF-268 CNS
test: NCI-60 one-dose screen, 48 h (100 = growth as untreated, 0 = no growth, -100 = all killed)
cond: 10 µM
The panel holds about 83,000 compounds, 20% with a hit somewhere; the sample as a whole holds those more often.
outcome-measure: growth (%)
Your answer should be a plain number; it is taken to be in %.

What reported growth corresponds to COc1ccc2cc([C@H](C)C(=O)[Se]CCC#N)ccc2c1 on SF-268 CNS?
-45.8

Please give the result for CC12CCC3(CCC(=O)NCCCNc4ccnc5cc(Cl)ccc45)[C@@](C)(OO[C@]3(C)O1)O2 too.
5.01

Please give the result for C[C@H]1[C@H](OC(=O)CCC(=O)Nc2cnccn2)O[C@@H]2OC3(C)CC[C@H]4[C@H](C)CC[C@@H]1[C@@]24OO3 too.
56.3

Please give the result for C[C@H]1[C@H](OC(=O)CCC(=O)N(CCCc2cn(-c3ccc(C#N)cc3)nn2)CCNc2ccnc3cc(Cl)ccc23)O[C@@H]2OC3(C)CC[C@H]4[C@H](C)CC[C@@H]1[C@@]24OO3 too.
54.9

Please give the result for CC[C@]12C=CCN3CC[C@@]4(c5ccc(OC)cc5N(C)[C@H]4[C@@](O)(C(=O)OC)[C@@H]1OC(=O)CCCC[P+](C1CCCCC1)(C1CCCCC1)C1CCCCC1)[C@@H]32 too.
-70.5

Please give the result for O=C(/C=C/c1ccc(Cl)cc1Cl)c1nc2ccccc2n1Cc1ccc(Br)cc1 too.
81

Please give the result for CC[C@]12C=CCN3CC[C@@]4(c5ccc(OC)cc5N(C)[C@H]4[C@@](O)(C(=O)OC)[C@@H]1OC(=O)CCC[P+](c1ccc(F)cc1)(c1ccc(F)cc1)c1ccc(F)cc1)[C@@H]32 too.
42.3

Please give the result for O=C(NC([Se])=NC1CCCCC1)c1ccccc1 too.
96.2

* * *

Tested on: HL-60(TB) leukemia
test: NCI-60 one-dose screen, 48 h
cond: 10 µM unless noted
About 83,000 compounds went through this panel and 20% of them were active in at least one assay; those are over-represented in the sample as a whole. Active and inactive are the calls of the source. How the source made its calls: active means growth percent below 10; inactive means the rest.
Give one outcome, nothing more. List: True for active, False for inactive

What classification did CC1(C)CC[C@]2(C(=O)O)CC[C@]3(C)C(=CCC4[C@@]5(C)C[C@@H](O)[C@@H]6OC(c7ccc(F)cc7)OC[C@@]6(C)C5CC[C@]43C)C2C1 (stereo partly drawn) end up with in this test?
True

Please give the result for O=C(Cc1ccc2c(c1)CN(C1CCC(=O)NC1=O)C2=O)NCc1cccc2ccccc12 (stereo not drawn) too.
True

Please give the result for CC1(C)CC[C@]2(C(=O)O)CC[C@]3(C)C(=CCC4[C@@]5(C)C[C@@H](O)[C@@H]6OC(c7cccc(F)c7)OC[C@@]6(C)C5CC[C@]43C)C2C1 (stereo partly drawn) too.
True

Please give the result for CC12OOC(C)(OO1)C2CCC(=O)NCCCNc1ccnc2cc(Cl)ccc12 (stereo not drawn) too.
False

Please give the result for CC(=O)Nc1ccc(-n2cnc3cc(-c4ccc(NS(C)(=O)=O)cc4)ccc32)cc1 too.
False

Please give the result for CCCCOc1ccc(NC(=O)c2sc3nc(C)ccc3c2N)cc1 too.
False

Please give the result for COc1cc2oc(-c3cccc(C(=O)Nc4ccc(Cl)cc4)c3)cc(=O)c2c(OCCN)c1OC too.
True

Please give the result for c1n[nH]cc1-c1nc2ccc3[nH]ncc3c2c2c1CC1(CCOCC1)CC2 too.
False

* * *

Test system: SK-MEL-28 melanoma
test: NCI-60 one-dose screen, 48 h
cond: 10 µM
Compounds without any hit were thinned out: in the full panel of roughly 83,000, 20% have a hit. The source made the active and inactive calls. Rule for the calls: active = growth percent below 10; inactive = the rest.
Give one outcome, nothing more. List: true for active, false for inactive

What classification did C[C@H]1[C@@H](CC(=O)N[C@@H](Cc2coc3ccccc23)B(O)O)O[C@@H]2OC3(C)CC[C@H]4[C@H](C)CC[C@@H]1[C@@]24OO3 end up with in this test?
true

Please give the result for CC(=C\C(=O)Oc1ccc2c3c1OC1C(O)CCC4(O)C(C2)N(CC2CCC2)CCC314)/C=C1\CCCc2ccccc21 (configuration not stated) too.
false

Please give the result for COP(=O)(CC(F)(F)C(F)(F)F)OC too.
true

Please give the result for C[C@H]1[C@H](OC(=O)CCC(=O)N(CCCc2cn(-c3ccc(CN4CCOCC4)cc3)nn2)CCNc2ccnc3cc(Cl)ccc23)O[C@@H]2OC3(C)CC[C@H]4[C@H](C)CC[C@@H]1[C@@]24OO3 too.
true

Please give the result for O=C([Se]C1C=CCCC1)c1ccc(C(=O)[Se]C2C=CCCC2)s1 (configuration not stated) too.
true

Please give the result for C[C@H]1[C@H](OC(=O)CCC(=O)N(CCCc2cn(-c3ccc(C#N)cc3)nn2)CCNc2ccnc3cc(Cl)ccc23)O[C@@H]2OC3(C)CC[C@H]4[C@H](C)CC[C@@H]1[C@@]24OO3 too.
false

Please give the result for C=CC[Se]C(=O)c1ccc(C(=O)[Se]CC=C)s1 too.
true
